Origin of the recorded values: patent US20170008955A1

biological target: T1, cSNK:BSA conjugate (bovine, head-to-tail cyclized; conjugated to BSA carrier); test: BLI 2:1 fit, site 2 (KD2); 100 nM row
T1 construct: also called BSA-cSNK
T1 sequence (P02769 25-607 limits assumed): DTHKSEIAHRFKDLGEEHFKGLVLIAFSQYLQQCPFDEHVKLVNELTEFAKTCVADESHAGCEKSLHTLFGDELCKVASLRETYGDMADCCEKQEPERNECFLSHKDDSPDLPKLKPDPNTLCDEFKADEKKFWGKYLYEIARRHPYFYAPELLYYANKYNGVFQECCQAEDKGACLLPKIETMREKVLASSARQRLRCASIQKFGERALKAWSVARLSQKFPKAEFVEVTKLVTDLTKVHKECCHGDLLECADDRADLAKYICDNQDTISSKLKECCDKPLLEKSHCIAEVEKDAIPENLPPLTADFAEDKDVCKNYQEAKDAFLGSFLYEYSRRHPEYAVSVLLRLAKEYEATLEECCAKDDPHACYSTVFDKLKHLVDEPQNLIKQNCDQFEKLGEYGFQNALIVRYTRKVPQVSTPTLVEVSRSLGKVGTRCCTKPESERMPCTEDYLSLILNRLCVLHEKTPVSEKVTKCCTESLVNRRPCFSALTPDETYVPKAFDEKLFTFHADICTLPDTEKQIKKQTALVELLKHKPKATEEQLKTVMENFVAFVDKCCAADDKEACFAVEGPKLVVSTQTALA
experimental-endpoint: pKd
// pKd here means minus log10 of the molar concentration (mol/L)

Prompt line: // fetch pKd given entry rehu5E3-IgG4 (antibody, V domains shown, human IgG4/kappa; also called IgG4 rehu version) VH: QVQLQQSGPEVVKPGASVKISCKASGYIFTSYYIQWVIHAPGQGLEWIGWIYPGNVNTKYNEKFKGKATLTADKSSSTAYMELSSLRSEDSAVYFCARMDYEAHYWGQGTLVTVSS VL: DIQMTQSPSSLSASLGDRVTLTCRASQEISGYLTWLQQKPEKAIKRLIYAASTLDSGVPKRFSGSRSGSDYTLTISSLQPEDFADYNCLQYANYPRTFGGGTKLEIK
Response line: 8.40
